Taken from patent US8652718B2.

Quick reference for solubility among some compounds
# ASSAY_OVERVIEW: Measurement of solubility in tetrahydrofuran
# Type: physicochemical
# SETUP_CONDITIONS: tetrahydrofuran, 24 °C, organic solvent or mixture, thermodynamic from solid, tetrahydrofuran, 24±1° C.; read-out: Solubility in tetrahydrofuran, Relative evaluation

Below: 5 compounds and their reported solubility.
Cc1ccc(C2=CC(=CC3=C([O-])/C(=C/c4cc(-c5ccc(C)cc5)[s+]c(-c5ccc(C)cc5)c4)C3=O)C=C(c3ccc(C)cc3)S2)cc1 [II-2, reference compound]; 100 to 1000 µg/mL
CCCCCCc1ccc(C2=CC(=CC3=C([O-])/C(=C/c4cc(-c5ccc(CCCCCC)cc5)[s+]c(-c5ccc(CCCCCC)cc5)c4)C3=O)C=C(c3ccc(CCCCCC)cc3)S2)cc1 [II-3, reference compound]; ≥ 1000 µg/mL
CC(C)(C)c1ccc(C2=CC(=CC3=C([O-])/C(=C/c4cc(-c5ccc(C(C)(C)C)cc5)[s+]c(-c5ccc(C(C)(C)C)cc5)c4)C3=O)C=C(c3ccc(C(C)(C)C)cc3)S2)cc1 [Formula I-1]; ≥ 1000 µg/mL
O=C1C(C=C2C=C(c3ccccc3)SC(c3ccccc3)=C2)=C([O-])/C1=C/c1cc(-c2ccccc2)[s+]c(-c2ccccc2)c1 [II-1, reference compound]; < 100 µg/mL
CCCCc1ccc(C2=CC(=CC3=C([O-])/C(=C/c4cc(-c5ccc(CCCC)cc5)[s+]c(-c5ccc(CCCC)cc5)c4)C3=O)C=C(c3ccc(CCCC)cc3)S2)cc1 [Formula I-2]; ≥ 1000 µg/mL

# ---- query compound ----
// solubility lookup, key: CCc1ccc(C2=CC(=CC3=C([O-])/C(=C/c4cc(-c5ccc(CC)cc5)[s+]c(-c5ccc(CC)cc5)c4)C3=O)C=C(c3ccc(CC)cc3)S2)cc1 [Formula I-3]
100 to 1000 µg/mL
